Numbers sourced from the RNAGym collection of RNA variant scans (doi:10.1126/science.aae0568).

B1: tRNA (parent)
chain: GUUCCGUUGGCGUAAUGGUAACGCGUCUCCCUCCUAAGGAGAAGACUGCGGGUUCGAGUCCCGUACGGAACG

- Variants of: B1
- experiment: yeast fitness relative to wild type (ratio to wild type); higher = fitter; tRNA-Arg(CCU), competitive growth, 37 C, YPD
Fewer inactive variants are shown than the library holds.
quantity.kind: yeast fitness

GUUCCGUUGGCGUAAUGGUAACCCGUCUCCCUCCUAUGGAGAAGACCGCGGGUUUGAGUGCCGUAUGGAACG [G23C A37U U47C C55U C60G C66U] ... ≤ 0.5
GUUCCGUUGGCGUAAUGAUAACGCGUUUCCCUCCUAGGGAGAAGACUGCGGGUUCGAGUCCCGUACGGACCG [G18A C27U A37G A70C] ... ≤ 0.5
GUUCCGUGGGCGUAAUGGUUACGCGUCUCCCUCCUCAGGAGAAGACUGCGGGUUCGAGUCCCGUGCGGAACG [U8G A20U A36C A65G] ... ≤ 0.5
GUUCCGUUGAAGUAAUGGUAACGCGUCUACCUCCUAAGGAGAAGACUGCGGGUUCGAGUCCCGUAUGGAACG [G10A C11A C29A C66U] ... ≤ 0.5

Which value of yeast fitness has been reported for GCUCCGUUGGCGUAAUGGUAAUGCGUCUCCCUCCUAAGGAGAAGACUGCGGGUUCGAGUCCCGUACGGCACG [U2C C22U A69C] in the records?
0.511

Which value of yeast fitness has been reported for GUUCCGUUGGCGUAAUGGUAACGCGUUUCCCUCCUAAGGAGAAAACUGCGGAUUCGCGUCCCGUACGGAACG [C27U G44A G52A A57C] in the records?
0.538

Which value of yeast fitness has been reported for GUUCCGUUGGCGUAAUGGUAACGUGUCUCCCUCCUAAGGAGAAGACUGCGGGUUCGAGUCCCGUACGGAGCG [C24U A70G] in the records?
0.887

Which value of yeast fitness has been reported for GUUCCGUUGGCGUAUUGGUAACGCGUCUCCCUCCUAAGGAGAAGACGGCGGGUUCGCGUCCCGUACGGAACG [A15U U47G A57C] in the records?
≤ 0.5

Which value of yeast fitness has been reported for GUUCCGUUGGCGUAAUGGUAAAGCGUCUCCCUCCUAAGGAGAAGACUGCGGGUUCGGGUCCCGUACGGAACG [C22A A57G] in the records?
0.916

Which value of yeast fitness has been reported for GUCCCGUUGGUGCAAUGGUAACGAGUCUCCCUCCUAAGGAGACGACUGCCGGUUCGAGUGCCGUACGGAACG [U3C C11U U13C C24A A43C G50C C60G] in the records?
≤ 0.5

Which value of yeast fitness has been reported for GUUCCGUUGGCGUAUUGGUAACGCGACUCCAUCCUAAGGAGAAGACUGCGGGUUCGAGUCCCGUACUGAACG [A15U U26A C31A G67U] in the records?
≤ 0.5

Which value of yeast fitness has been reported for GUUCCGUUGGCGUCAUGGUAACGCGUCUCCCUCCUUGGGAGAAGACUGCGGAUUCGAGUCCCGUUCGGACCG [A14C A36U A37G G52A A65U A70C] in the records?
≤ 0.5

Which value of yeast fitness has been reported for GUUACGAUGGCGUAAUGGUAACGCGUCUCCCUCCUAAGGAGAAGAUUGCGGGUUCGAGUCCCGUACGGAACG [C4A U7A C46U] in the records?
≤ 0.5

Which value of yeast fitness has been reported for GUUCCGUCGGCGUAAUGGUAACGCGUCUACCUCGUGGGGCGAAGACAGCGGGUUCGAGUCCCGCACGGAACG [U8C C29A C34G A36G A37G A40C U47A U64C] in the records?
≤ 0.5

Which value of yeast fitness has been reported for GUUCCAUUGGCGUAAUGGUAACGCGUCUACCCCCUAAGGAGUAGACUGCGGGUUCGAGUCCCGUACAGAACG [G6A C29A U32C A42U G67A] in the records?
≤ 0.5

Which value of yeast fitness has been reported for GUUCCGUUGGCCCAAUGGUAAUGCGUCUCCCUCCUAAGGAGACGACUGCGGGUUCGAGUCCCGUACGCAACG [G12C U13C C22U A43C G68C] in the records?
≤ 0.5

Which value of yeast fitness has been reported for GUUCCGUUGGCGUAAUGGUGACGCGUCUCCCGCCUAAGGAGAAGACUGCGGGUUCGACUCACGUUCGGAACG [A20G U32G G58C C61A A65U] in the records?
≤ 0.5

Which value of yeast fitness has been reported for GUUCCGUCGGCGUAAUGGUAACGCGUCUCCCUCCUAAGGAGAUGACUGCCGGUUCGAGUCCCGUACGGAACG [U8C A43U G50C] in the records?
≤ 0.5

Which value of yeast fitness has been reported for GUUCCGUUGGCGUAAUGGUACUGCGUCUCCUUUCUAAGGAGAAGACUCCGGGUUCGAGUCCCGUACGGAACG [A21C C22U C31U C33U G48C] in the records?
≤ 0.5

Which value of yeast fitness has been reported for GUUCCGUUGGCGUAAAGGUAACGCGUCUCCCUCCUAAGGAGAAGACUGCGGGUUCGAGUCCCGUACAGAACG [U16A G67A] in the records?
0.926

Which value of yeast fitness has been reported for GUUCCGUUGGCGUCAUGGUAACGCGUCUCCCUCCUAAGGAGUACACUGCGGGUUCGAGUCCCGUACGGAACG [A14C A42U G44C] in the records?
≤ 0.5

Which value of yeast fitness has been reported for GUUCCGUUGGCGUAAUGGUAACGCGUCUCCCUCCUAAGGAGAAGACUGCGGGUUAGAGUCCCGUACAGAACG [C55A G67A] in the records?
0.658

Which value of yeast fitness has been reported for GUUUCGUUGGCGUAAUGGUAACGCGUCUCCCUCCUAAGGAGACGACUGCGGGUUCGAGUCCCGUACGGAACG [C4U A43C] in the records?
1.01
